Task for the reader: assign each of the following compounds its reported composite z-score.
# System: Lefty1
# experiment notes: Lefty1 binders on small-molecule microarrays, primary screen, biochemical, small-molecule microarray, 635/667 nm fluorescence (AID 1139)
# condition notes: small-molecule microarray binding, fluorescence 635/667; higher = more signal
Give only the figure.

Please respond with reported composite z-score (system Lefty1) for "C=CC[C@@]1(C(=O)O)N=C(c2ccc(OCCCO)cc2)O[C@@H]1c1ccccc1" .
-0.726

With Lefty1 as the test system, provide measured composite z-score for this compound: "CCOC(=O)C[C@H]1[C@H](OC(=O)c2ccccc2-c2ccccc2)[C@@H](NC(=O)CC(C)C)c2cc(OCCCO)ccc2N1C(=O)c1ccc2ccccc2n1"
0.76

// output composite z-score; input [N-]=[N+]=NCc1ccccc1C[C@]1(C(=O)NCC(O)CO)N=C(c2ccc(OCCCO)cc2)O[C@H]1c1ccccc1CN=[N+]=[N-] (some centres not stated) ; system Lefty1
-0.204

Using Lefty1 as the test system, report measured composite z-score of "C=C(CCCC)C(=O)CC[C@@H](OC(=O)c1cccnc1)c1ccccc1OCCO" .
1.56

State composite z-score (Lefty1) of "C=CCOC(=O)[C@@H]1[C@H]2C(=O)O[C@H](c3ccccc3)[C@H](c3ccccc3)N2[C@H](c2ccc(OCCOC(=O)[C@H]3C[C@H]4C(=O)N[C@@H](CCCCNC(C)=O)C(=O)N4[C@H]3c3cccc(OCCO)c3)cc2)[C@@]12C(=O)Nc1ccc(I)cc12" .
1.28

Provide Lefty1 composite z-score reading for COc1ccc(C(O)C2C=CC3C(=O)N(c4ccccc4)C(=O)C3N2Nc2ccc(C#N)cc2)c2ccccc12 (configuration not stated) .
0.392

Answer with composite z-score of CCCCN1CC=CC23O[C@@H]4C=CCOC(=O)[C@@H]4[C@H]2C(=O)N(CCCO)[C@@H]3C1=O (some centres not stated) measured for Lefty1.
-0.199

====

# experiment notes: COS7 lysate on small-molecule microarray, probe aHis, 635 nm (AID 1123);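 also: z-score combines 667nm fluorescence intensity with signal-to-noise per printed compound spot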
# condition notes: COS7 cell lysate, fluorescence, higher = more signal
measure: composite z-score

Entry "CCCNC(=O)[C@@]1(c2ccc([N+](=O)[O-])cc2)CC(=O)N(C2CCCCC2)[C@@H]1c1ccc(CO)cc1I" needs its composite z-score filled in; supply it.
1.73

Give the reported value of composite z-score for this record: "C=CCN1C(=O)[C@@]2(CCC(=O)OC(C)(C)C)N=C(c3ccc(OCCCO)cc3)O[C@H]2c2ccccc21"
1.33

Look up and report measured composite z-score for this entry: "CC(C)C(=C=CC[C@H](O)c1ccc(OCCO)cc1)C[C@H](O)c1cc(Cl)cc(Cl)c1O"
0.644

Item "O=c1cccc(-c2ccc(C(F)(F)F)cc2)o1" : provide composite z-score
-0.89

Respond only with composite z-score recorded for "COC(=O)[C@@]1(Cc2ccccc2)[C@H]2c3cc(C(=O)N4CCCC4)n(Cc4cc(F)cc5c4OCOC5)c3C[C@H]2CN1C(=O)c1ccccc1"
2.57

Give composite z-score for C=C1C2CC3C(=C4C(CO[C@@H]4[C@H]4CCCN4S(=O)(=O)c4ccccc4[N+](=O)[O-])C4C(=O)N(C)C(=O)C34)CC2C(=O)N1C (stereo partly drawn)
0.5

Using known records, supply composite z-score for "COc1cc2c(cc1OC)CN(C(=O)[C@H]1[C@@H]3C(=O)O[C@@H](c4ccccc4)[C@@H](c4ccccc4)N3[C@@H](c3ccc(OCCO)cc3)[C@]13C(=O)Nc1ccc(C#CCCO)cc13)CC2"
2.2

In one line, give reported composite z-score of the entry "O=C1NCC(=O)N2[C@@H]1C[C@@H](C(=O)O)[C@H]2c1ccc(O)cc1" .
2.25
